testTarget: human GnRH receptor (Homo sapiens)
Sequence (P30968 1-328): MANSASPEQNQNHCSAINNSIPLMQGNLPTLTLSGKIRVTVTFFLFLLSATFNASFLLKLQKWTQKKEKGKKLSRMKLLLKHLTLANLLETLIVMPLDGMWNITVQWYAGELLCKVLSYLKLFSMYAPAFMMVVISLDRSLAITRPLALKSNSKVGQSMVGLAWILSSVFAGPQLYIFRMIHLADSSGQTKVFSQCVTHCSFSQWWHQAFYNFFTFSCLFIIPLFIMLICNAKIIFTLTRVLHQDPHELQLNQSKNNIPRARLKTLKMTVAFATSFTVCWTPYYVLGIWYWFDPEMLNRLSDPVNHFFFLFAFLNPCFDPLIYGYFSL
quantityMeasured: pKi
Give bare numbers, as −log10 of the molar value.

The measured pKi associated with COc1cc(F)c(-n2c(=O)[nH]c3csc(C(=O)O)c3c2=O)cc1OCc1c(OC)ccc(F)c1F [Compound (VI)] reads 7.56
